Where do these numbers come from? They come from patent US20060264460A1.

target: human Cot/Tpl2 kinase (Homo sapiens, UniProt P41279); construct: human Cot/Tpl2 kinase construct encoding residues 30-398; 6His (N); made in house; host or cells: Sf9 insect cells, baculovirus system (BD Biosciences); experiment: Tpl2/Cot kinase assay: GST-MEK1 phosphorylation detected by ELISA (DELFIA Eu); format: biochemical; details: 0.4 nM Tpl2, 35 nM GST-MEK1, 50 uM ATP, 1 h at 30° C.
Sequence (P41279 30-398): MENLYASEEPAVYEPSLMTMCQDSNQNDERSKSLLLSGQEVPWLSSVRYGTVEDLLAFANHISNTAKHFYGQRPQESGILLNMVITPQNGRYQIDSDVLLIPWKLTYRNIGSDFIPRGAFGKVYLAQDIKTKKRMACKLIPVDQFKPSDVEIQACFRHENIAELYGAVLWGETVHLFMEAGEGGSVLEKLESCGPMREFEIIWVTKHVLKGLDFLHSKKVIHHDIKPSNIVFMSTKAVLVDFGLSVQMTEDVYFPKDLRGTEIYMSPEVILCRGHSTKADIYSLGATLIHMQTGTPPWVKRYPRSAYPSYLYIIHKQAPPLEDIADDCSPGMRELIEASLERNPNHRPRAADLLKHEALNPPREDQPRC
pIC50: −log10 of the molar value.
A collection of compounds and their measured pIC50
OUTCOME_MEASURE: pIC50

- COMPOUND: "N#Cc1cnc2c(Br)cc(NCc3cn(CC(=O)N4CCOCC4)nn3)cc2c1Nc1ccc(F)c(Cl)c1 [Example 298]"
  OUTCOME_MEASURE: "pIC50"
  BOUND_SIGN: "="
  ASSAY_VALUE: 7.42
- COMPOUND: "N#Cc1cnc2c(Br)cc(NCc3cn(CCN4CCCCCC4)nn3)cc2c1Nc1ccc(F)c(Cl)c1 [Example 307]"
  OUTCOME_MEASURE: "pIC50"
  BOUND_SIGN: "="
  ASSAY_VALUE: 7.21
- COMPOUND: "CCOCCOc1ccc2c(c1)CN(c1ccc3ncc(C#N)c(Nc4ccc(F)c(Cl)c4)c3c1)C2=N [Example 60]"
  OUTCOME_MEASURE: "pIC50"
  BOUND_SIGN: "<"
  ASSAY_VALUE: 4.40
- COMPOUND: "N#Cc1cnc2c(Br)cc(NCc3cccc[n+]3[O-])cc2c1Nc1ccc(F)c(Cl)c1 [Example 101]"
  OUTCOME_MEASURE: "pIC50"
  BOUND_SIGN: "="
  ASSAY_VALUE: 8.39
- COMPOUND: "CN(C)C(=O)c1cc(NCc2cccnc2)cc2c(Nc3cccc(Cl)c3)c(C#N)cnc12 [Example 71]"
  OUTCOME_MEASURE: "pIC50"
  BOUND_SIGN: "="
  ASSAY_VALUE: 6.40
- COMPOUND: "COCC(=O)NCCn1cc(CNc2cc(Cl)c3ncc(C#N)c(Nc4ccc(F)c(Cl)c4)c3c2)nn1 [Example 219]"
  OUTCOME_MEASURE: "pIC50"
  BOUND_SIGN: "="
  ASSAY_VALUE: 7.19
- COMPOUND: "Cn1cc(CNc2cc(Cl)c3ncc(C#N)c(Nc4ccc(F)c(Cl)c4)c3c2)nn1 [Example 217]"
  OUTCOME_MEASURE: "pIC50"
  BOUND_SIGN: "="
  ASSAY_VALUE: 8.14
- COMPOUND: "N#Cc1cnc2ccc(NCc3ccc(S(=O)(=O)N4CCOCC4)cc3)cc2c1Nc1ccc(F)c(Cl)c1 [Example 120]"
  OUTCOME_MEASURE: "pIC50"
  BOUND_SIGN: "="
  ASSAY_VALUE: 7.62
